Would you kindly list HaCaT viability for each of these molecules?
# Test system: HaCaT
# protocol description: In vitro phototoxicity test (neutral red) on HaCaT
# Type: cell-based, human
# condition context: +UVA 5.0 J/cm2; 31.3 μmol/l
The figure you give is taken to be in % control; do not add the unit.

Requested field: HaCaT viability. Item: c1csc(CNc2ncnc3c2ncn3C2CCCO2)c1 (stereo not shown) [Compound 9]
128.1

Name the reported HaCaT viability value associated with the molecule Clc1nc(NCC2CCCO2)c2ncn(C3CCCO3)c2n1 (stereo not shown) [Compound 20]
121.4

Give its HaCaT viability value. Item: Clc1nc(NCc2ccco2)c2ncn(C3CCCO3)c2n1 (stereo not shown) [Compound 15]
118.8

Looking for the measured HaCaT viability of OCc1ccc(CNc2ncnc3c2ncn3C2CCCO2)o1 (stereo not shown) [Compound 3] , can you help?
118.43

----------
Give NHDF viability for every item shown.
# Tested on: Normal human dermal fibroblasts (NHDF)
# protocol description: In vitro phototoxicity test (neutral red) on NHDF
# Type: cell-based
# condition context: −UVA; 7.8 μmol/l
Form entry: value (% control) — number only.

Return reported NHDF viability; argument: OCc1ccc(CNc2ncnc3c2ncn3C2CCCO2)o1 (centres unmarked)
104.9

Tell me the measured NHDF viability of Clc1nc(NCC2CCCO2)c2ncn(C3CCCO3)c2n1 (centres unmarked) , please.
102.9

Consider the compound c1nc(NCC2CCCO2)c2ncn(C3CCCO3)c2n1 (centres unmarked) and give its measured NHDF viability.
106.5

Can you look up the measured NHDF viability of Clc1nc(NCc2ccco2)c2ncn(C3CCCO3)c2n1 (centres unmarked) for me?
103.5

What measured NHDF viability goes with c1csc(CNc2ncnc3c2ncn3C2CCCO2)c1 (centres unmarked) ?
103

----------
# System: Normal human dermal fibroblasts (NHDF)
# protocol description: In vitro UVA/UVB photoprotection test on NHDF (Example 9)
# Format: cell-based
# condition context: UVA 7.5 J/cm^2, 7.8 μmol/l
Please respond with reported Protection (%) for every item in the list.
Report only the number, with the unit % understood.

Look up Protection (%): c1csc(CNc2ncnc3c2ncn3C2CCCO2)c1 (centres unmarked)
44.4

Consider the compound Clc1nc(NCc2ccco2)c2ncn(C3CCCO3)c2n1 (centres unmarked) and give its measured Protection (%).
29.9

# Protection (%) lookup, item O=C(/C=C/c1ccc(O)c(O)c1)O[C@H](Cc1ccc(O)c(O)c1)C(=O)O [RA, rosmarinic acid, reference compound]
14.7

GET /values?readout=Protection (%)&item= Clc1nc(NCC2CCCO2)c2ncn(C3CCCO3)c2n1 (centres unmarked)
10.7

Returns the measured Protection (%) for the input compound. Input: OCc1ccc(CNc2ncnc3c2ncn3C2CCCO2)o1 (centres unmarked)
16.3

----------
# Test system: Normal human dermal fibroblasts (NHDF)
# protocol description: In vitro phototoxicity test (neutral red) on NHDF
# Format: cell-based
# condition context: +UVA 5.0 J/cm^2; 15.6 μmol/l
I'd be grateful if you could share measured NHDF viability for these entries.
Write down the numeric answer in % control and omit the unit.

Checklist item: NHDF viability tested on Normal human dermal fibroblasts (NHDF), entry OCc1ccc(CNc2ncnc3c2ncn3C2CCCO2)o1 (centres unmarked) [Compound 3] , value?
102.28

Param readout = NHDF viability; param system = Normal human dermal fibroblasts (NHDF); param query = Clc1nc(NCc2ccco2)c2ncn(C3CCCO3)c2n1 (centres unmarked) [Compound 15] ; response: value
102.6

Give the reported NHDF viability for c1nc(NCC2CCCO2)c2ncn(C3CCCO3)c2n1 (centres unmarked) [Compound 1] (system: Normal human dermal fibroblasts (NHDF)).
106.8

Give NHDF viability (Normal human dermal fibroblasts (NHDF)) of the following compound: Clc1nc(NCC2CCCO2)c2ncn(C3CCCO3)c2n1 (centres unmarked) [Compound 20]
100.4

Find the measured NHDF viability: item c1csc(CNc2ncnc3c2ncn3C2CCCO2)c1 (centres unmarked) [Compound 9] , target or system Normal human dermal fibroblasts (NHDF).
100.8

The reported measurements were obtained from patent US10774084B2.
